This collection of values is drawn from patent US12371428B2.

# ASSAYED_SYSTEM: KDR (phospho-KDR, VEGF165-stimulated HUVEC cells) (Homo sapiens (Human))
# ASSAY_EXPLANATION: KDR autophosphorylation ELISA in HUVEC cells (Example G)
# Type: cell-based
# ASSAY_SETUP: cellular activity; KDR autophosphorylation ELISA in HUVEC cells
MEASUREMENT_TYPE: IC50

Known results for compounds:
>>> endpoint_value("COc1cc2nccc(Oc3ccc(NC(=O)c4cn(C5CNC5)cc(-c5ccc(F)cc5)c4=O)cc3F)c2nc1OC [Compound 576]")
"> 300 nM"
>>> endpoint_value("COc1ccc2nccc(Oc3ccc(NC(=O)c4c(C)ccn(-c5ccc(F)cc5)c4=O)cc3F)c2n1 [Compound 287]")
"< 100 nM"
>>> endpoint_value("COc1cc2nccc(Oc3ccc(NC(=O)c4cnc(C)c(-c5ccc(F)cc5)c4O)cc3)c2cc1OC [Compound 171]")
"< 100 nM"

Please fill in: IC50 reported for Cc1cc2nccc(Oc3ccc(NC(=O)c4cnc(C)c(-c5ccc(F)cc5)c4O)cc3F)c2nc1F [Compound 426] = < 100 nM

For record COc1cc2nccc(Oc3ccc(NC(=O)c4c5n(c(C)c(-c6ccc(F)cc6C)c4=O)CCOC5)cc3F)c2nc1OC [Compound 782] the listed IC50 is > 300 nM

# IC50 (compound: COc1cc2nccc(Oc3ccc(NC(=O)c4cc(C(C)=O)c(C)n(-c5ccc(F)cc5)c4=O)cc3F)c2nc1OC [Compound 86] ) is 100 to 300 nM

Measured IC50, COc1cnc2c(Oc3ccc(NC(=O)c4cn(C)c(C)c(-c5ccc(F)cc5C)c4=O)cc3F)ccnc2c1 [Compound 181] : > 300 nM

* * *

# ASSAYED_SYSTEM: KDR (phospho-KDR, VEGF165-stimulated HUVEC cells) (Homo sapiens (Human), UniProt P35968)
# Sequence (P35968 20-1356): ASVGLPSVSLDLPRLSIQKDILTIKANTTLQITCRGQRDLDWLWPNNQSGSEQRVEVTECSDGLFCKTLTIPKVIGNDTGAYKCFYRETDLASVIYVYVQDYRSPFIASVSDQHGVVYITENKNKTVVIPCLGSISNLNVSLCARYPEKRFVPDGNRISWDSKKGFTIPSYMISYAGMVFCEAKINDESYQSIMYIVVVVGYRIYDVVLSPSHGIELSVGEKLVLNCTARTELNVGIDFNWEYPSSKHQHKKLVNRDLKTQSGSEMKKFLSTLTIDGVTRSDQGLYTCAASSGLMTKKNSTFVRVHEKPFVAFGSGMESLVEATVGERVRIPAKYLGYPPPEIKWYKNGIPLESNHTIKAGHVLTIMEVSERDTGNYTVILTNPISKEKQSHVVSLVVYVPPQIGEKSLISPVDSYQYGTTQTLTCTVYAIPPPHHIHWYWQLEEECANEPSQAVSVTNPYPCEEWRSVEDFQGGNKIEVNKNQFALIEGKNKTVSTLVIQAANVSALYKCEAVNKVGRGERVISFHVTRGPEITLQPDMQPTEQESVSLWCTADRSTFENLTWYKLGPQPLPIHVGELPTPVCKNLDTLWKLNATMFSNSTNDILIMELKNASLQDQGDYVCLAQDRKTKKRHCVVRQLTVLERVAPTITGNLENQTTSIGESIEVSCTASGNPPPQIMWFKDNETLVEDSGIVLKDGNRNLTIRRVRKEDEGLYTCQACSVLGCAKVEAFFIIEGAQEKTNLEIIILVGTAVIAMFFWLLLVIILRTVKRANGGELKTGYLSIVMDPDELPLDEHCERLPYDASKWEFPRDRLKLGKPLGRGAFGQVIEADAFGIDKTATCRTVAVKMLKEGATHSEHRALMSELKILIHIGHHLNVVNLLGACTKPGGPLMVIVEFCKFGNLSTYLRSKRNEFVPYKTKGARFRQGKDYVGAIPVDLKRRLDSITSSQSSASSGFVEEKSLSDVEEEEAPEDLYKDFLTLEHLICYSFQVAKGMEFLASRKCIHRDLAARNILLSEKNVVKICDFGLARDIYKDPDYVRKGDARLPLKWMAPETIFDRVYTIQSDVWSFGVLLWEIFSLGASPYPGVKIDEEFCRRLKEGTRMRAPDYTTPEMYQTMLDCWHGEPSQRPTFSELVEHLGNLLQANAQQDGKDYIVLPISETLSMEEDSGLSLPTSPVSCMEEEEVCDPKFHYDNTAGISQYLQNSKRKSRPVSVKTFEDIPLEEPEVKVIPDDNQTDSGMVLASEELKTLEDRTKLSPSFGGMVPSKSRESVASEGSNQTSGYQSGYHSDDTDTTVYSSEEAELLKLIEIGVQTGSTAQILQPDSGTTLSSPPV
# ASSAY_EXPLANATION: KDR autophosphorylation ELISA in HUVEC cells (Example G)
# Format: cell-based
# ASSAY_SETUP: cellular activity; KDR autophosphorylation ELISA in HUVEC cells
# Procedure: Human umbilical vein endothelial cells or HUVEC (Lonza #C2519A) were seeded at 2×10^4 cells/well onto 96-well plates (Corning #3904), in EGM-2 growth medium (Lonza #CC-3162) containing 1% Penicillin Streptomycin (Thermo Fisher #15140-122). […] IC50 values were calculated by nonlinear regression analysis using a 4-parameter logistic curve fit in ActivityBase XE (IDBS).
MEASUREMENT_TYPE: IC50

Field: example entries. Status: answers known.
>>> endpoint_value("COc1cc2nccc(Oc3ccc(NC(=O)c4c5n(cc(-c6ccc(F)cc6)c4=O)CCC5)cc3F)c2nc1OC [Compound 404]")
"< 100 nM"
>>> endpoint_value("COc1nc2c(Oc3ccc(NC(=O)c4c(C)nc(C)c(-c5ccc(F)cc5)c4O)cc3F)ccnc2cc1O [Compound 431]")
"< 100 nM"

For the compound COc1cc2nccc(Oc3ccc(NC(=O)c4cn(C(C)C)cc(-c5ccc(F)cc5)c4=O)cc3F)c2cc1OC [Compound 43] , the measured IC50 on KDR (phospho-KDR, VEGF165-stimulated HUVEC cells) (Homo sapiens (Human), UniProt P35968) was < 100 nM

KDR (phospho-KDR, VEGF165-stimulated HUVEC cells) (Homo sapiens (Human), UniProt P35968) data for CCc1nc(C)c(-c2ccc(F)cc2C)c(O)c1C(=O)Nc1ccc(Oc2ccnc3cc(OC)cnc23)cc1 [Compound 205] ; its IC50: < 100 nM

Bench note, KDR (phospho-KDR, VEGF165-stimulated HUVEC cells) (Homo sapiens (Human), UniProt P35968): COc1ccc2nccc(Oc3ccc(NC(=O)c4nccn(-c5ccc(F)cc5)c4=O)cc3F)c2n1 [Compound 380] , IC50 reads > 300 nM

* * *

# ASSAYED_SYSTEM: KDR (phospho-KDR, VEGF165-stimulated HUVEC cells) (Homo sapiens (Human), UniProt P35968)
# ASSAY_EXPLANATION: KDR autophosphorylation ELISA in HUVEC cells (Example G)
# Type: cell-based
# ASSAY_SETUP: cellular activity; KDR autophosphorylation ELISA in HUVEC cells
pIC50: −log10 of the molar value.
MEASUREMENT_TYPE: pIC50

Please review the entries below; each comes with its answer.
>>> endpoint_value("COc1cnc2c(Oc3ccc(NC(=O)c4nccn(-c5ccc(F)cc5)c4=O)cc3)ccnc2c1 [Compound 382]")
"< 6.52"
>>> endpoint_value("Cc1ncc(C(=O)Nc2ccc(Oc3ccnc4cc(C(F)(F)F)cnc34)c(F)c2)c(O)c1-c1ccc(F)cc1 [Compound 151]")
"> 7.00"
>>> endpoint_value("COc1ccc2nccc(Oc3ccc(NC(=O)c4nnc(C)c(-c5ccc(F)cc5)c4OC)cc3F)c2n1 [Compound 538]")
"> 7.00"

So for CCc1c(C)c(C(=O)Nc2ccc(Oc3ccnc4cc(OC)c(OC)nc34)c(F)c2)c(=O)n(-c2ccc(F)cc2)c1C [Compound 330] , the logged pIC50 turned out to be < 6.52

Record summary for COc1cnc2c(Oc3ccc(NC(=O)c4cn5c(c(-c6ccc(F)cc6)c4=O)COCC5)cc3F)ccnc2c1 [Compound 661] : reported pIC50 = < 6.52

# pIC50 (compound: COc1cc2nccc(Oc3ccc(NC(=O)c4ccnn(-c5ccc(F)cc5C)c4=O)cc3)c2nc1OC [Compound 528] ) is > 7.00

Measured pIC50 of COCCOc1nc2c(Oc3ccc(NC(=O)c4c(C)nc(C)c(-c5ccc(F)cc5C)c4O)cc3F)ccnc2cc1OC [Compound 208] : > 7.00

* * *

Listed below: pIC50 values for each entry.
# ASSAYED_SYSTEM: Human MET (residues 956-1390) (Homo sapiens (Human), UniProt P08581)
# Sequence (P08581 956-1390): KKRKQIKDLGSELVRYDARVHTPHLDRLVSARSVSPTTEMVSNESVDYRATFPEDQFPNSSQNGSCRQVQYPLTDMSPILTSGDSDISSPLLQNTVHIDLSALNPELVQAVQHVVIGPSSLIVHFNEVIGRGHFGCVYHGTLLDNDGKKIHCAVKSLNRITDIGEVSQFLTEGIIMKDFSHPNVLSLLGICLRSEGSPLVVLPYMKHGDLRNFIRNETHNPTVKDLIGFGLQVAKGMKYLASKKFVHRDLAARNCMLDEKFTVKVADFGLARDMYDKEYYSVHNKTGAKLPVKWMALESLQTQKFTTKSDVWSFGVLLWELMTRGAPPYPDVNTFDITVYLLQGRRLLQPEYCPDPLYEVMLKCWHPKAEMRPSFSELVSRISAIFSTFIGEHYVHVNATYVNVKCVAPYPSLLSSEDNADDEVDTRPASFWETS
# ASSAY_EXPLANATION: Human Met kinase assay, HTRF KinEase (Example D-2)
# Type: biochemical
# ASSAY_SETUP: protocol of Example D-2 (other compounds); read-out: c-Met IC50
pIC50: −log10 of the molar value.

>>> endpoint_value("COc1ccc2nccc(Oc3ccc(NC(=O)c4cn(C5CC5)c(C)c(-c5ccc(F)cc5C)c4=O)cc3F)c2n1 [Compound 441]")
"6.52 to 7.00"
>>> endpoint_value("COc1cc2nccc(Oc3ccc(NC(=O)c4c(C)ccn(-c5ccc(F)cc5)c4=O)cc3)c2nc1OC [Compound 299]")
"> 7.00"
>>> endpoint_value("COc1cc2nccc(Oc3ccc(NC(=O)c4c(C)nc(C)n(-c5ccc(F)cc5)c4=O)cc3F)c2nc1OC [Compound 101]")
"> 7.00"

Human MET (residues 956-1390) (Homo sapiens (Human), UniProt P08581) pIC50 of COc1cc2nccc(Oc3ccc(NC(=O)c4cn(C)c(C)c(-c5ccc(F)cc5)c4=O)c(F)c3F)c2nc1OC [Compound 390] is > 7.00

* * *

# Lookup of reported pIC50 keyed by entry
# ASSAYED_SYSTEM: KDR (phospho-KDR, VEGF165-stimulated HUVEC cells) (Homo sapiens (Human), UniProt P35968)
# ASSAY_EXPLANATION: KDR autophosphorylation ELISA in HUVEC cells (Example G)
# Type: cell-based
# ASSAY_SETUP: cellular activity; KDR autophosphorylation ELISA in HUVEC cells
pIC50: −log10 of the molar value. Where a name gives a salt, the structure may show the parent alone.

>>> endpoint_value("COc1cnc2c(Oc3ccc(NC(=O)c4cnc(C)c(-c5ccc(F)cc5C)c4O)cc3F)ccnc2c1")
"> 7.00"
>>> endpoint_value("COc1cc2nccc(Oc3ccc(NC(=O)c4cncc(-c5ccc(F)cc5)c4O)cc3)c2nc1OC")
"> 7.00"
>>> endpoint_value("COc1cc2nccc(Oc3ccc(NC(=O)c4cn(C)cc(-c5cccc(F)c5)c4=O)cc3F)c2nc1OC [Compound 35, hydrochloride]")
"> 7.00"
>>> endpoint_value("COc1nc2c(Oc3ccc(NC(=O)c4c(C)nc(C)n(-c5ccc(F)cc5)c4=O)cc3F)ccnc2cc1C")
"> 7.00"
>>> endpoint_value("COc1cc2nccc(Oc3ccc(NC(=O)c4cn(CC(F)(F)F)cc(-c5ccc(F)cc5)c4=O)cc3F)c2nc1OC")
"< 6.52"

// field: pIC50; key: Cc1nc(C)n(-c2ccc(F)cc2)c(=O)c1C(=O)Nc1ccc(Oc2ccnc3cc(OCc4ccccc4)cnc23)c(F)c1 ; value = > 7.00

According to the records, this compound COCCOc1nc2c(Oc3ccc(NC(=O)c4cn(C)c(CF)c(-c5ccc(F)cc5)c4=O)cc3F)ccnc2cc1OC displays pIC50 of 6.52 to 7.00

* * *

# ASSAYED_SYSTEM: Human KDR (residues 790-1356) (Homo sapiens (Human))
# Sequence (P35968 790-1356): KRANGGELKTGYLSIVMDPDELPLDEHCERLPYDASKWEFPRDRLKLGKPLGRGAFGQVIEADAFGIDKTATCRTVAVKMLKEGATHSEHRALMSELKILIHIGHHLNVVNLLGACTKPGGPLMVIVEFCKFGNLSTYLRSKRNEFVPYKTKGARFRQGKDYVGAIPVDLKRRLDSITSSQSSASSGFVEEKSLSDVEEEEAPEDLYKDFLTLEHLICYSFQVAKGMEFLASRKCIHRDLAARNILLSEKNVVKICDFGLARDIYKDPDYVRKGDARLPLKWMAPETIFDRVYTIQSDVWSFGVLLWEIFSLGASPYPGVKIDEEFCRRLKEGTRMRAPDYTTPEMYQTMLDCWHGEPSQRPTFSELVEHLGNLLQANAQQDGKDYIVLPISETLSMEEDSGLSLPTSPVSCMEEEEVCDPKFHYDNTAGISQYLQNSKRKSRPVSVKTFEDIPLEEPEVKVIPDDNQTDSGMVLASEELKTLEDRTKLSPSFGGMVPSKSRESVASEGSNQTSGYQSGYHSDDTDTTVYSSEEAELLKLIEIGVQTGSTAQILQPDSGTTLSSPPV
# ASSAY_EXPLANATION: Human KDR kinase assay, HTRF KinEase (Example B-2)
# Assay type: biochemical
# ASSAY_SETUP: protocol of Example B-2 (other compounds)
MEASUREMENT_TYPE: IC50

>>> endpoint_value("COc1ccc2nccc(Oc3ccc(NC(=O)c4n[nH]c(C)c(-c5ccc(F)cc5C)c4=O)cc3F)c2n1")
"> 300 nM"

Recorded result, COc1ccc2nccc(Oc3ccc(NC(=O)c4cnc(C)n(-c5ccc(F)cc5)c4=O)cc3)c2n1 , IC50: > 300 nM

Kindly note the recorded IC50 for COc1cc2nccc(Oc3ccc(NC(=O)c4cccn(-c5ccc(F)cc5)c4=O)cc3F)c2nc1OC , which is < 100 nM

The recorded IC50 for entry COc1ccc2nccc(Oc3ccc(NC(=O)c4cn(C)c(C)c(-c5ccc(F)cc5C)c4=O)cc3F)c2n1 equals > 300 nM
